Tested on: ethanol/HCl-induced gastric lesions
run_description: Ethanol/HCl-induced gastric lesion (ulcer) model in mice
Format: in vivo
condition_summary: single oral dose 25 mg/kg, mean ± SD, sum of lesion lengths
measurement_label: Gastroprotective effect: Lesion index
Please answer using a numeric value trailed by its unit.

Data request: Requested field: Gastroprotective effect: Lesion index. Item: COC(=O)[C@@H]1CCCN1C(=O)C[C@H](C)CCC1=C(C)CCC2[C@@](C)(C(=O)N3CCC[C@H]3C(=O)OC)CCC[C@]12C (stereo partly drawn) [Compound 9]
Data returned: 18.4 ± 11.3 mm

Data request: Could you tell me which Gastroprotective effect: Lesion index is on file for COC(=O)[C@@H](NC(=O)C[C@H](C)CCC1=C(C)CCC2[C@@](C)(C(=O)O)CCC[C@]12C)C(C)C (stereo partly drawn) [Compound 2] ?
Data returned: 19.1 ± 8.3 mm

Attention now shifts to the item below.
Data request: Value lookup for Gastroprotective effect: Lesion index; key = C=C1CCC2[C@](C)(CCC[C@]2(C)C(=O)O)[C@H]1CC[C@@H](C)CC(=O)N[C@@H](Cc1c[nH]c2ccccc12)C(=O)OC (stereo partly drawn) [Compound 15]
Data returned: 12.1 ± 4.7 mm

###

System: ethanol/HCl-induced gastric lesions
run_description: Ethanol/HCl-induced gastric lesion (ulcer) model in mice
Type: in vivo
condition_summary: single oral dose 25 mg/kg, mean ± SD, sum of lesion lengths
measurement_label: Gastroprotective effect: Lesion index
Returns: string containing the numeric result and its unit.

Data request: Which Gastroprotective effect: Lesion index value belongs to C=C1CCC2[C@](C)(CCC[C@]2(C)C(=O)NCC(=O)OC)[C@H]1CC[C@@H](C)CC(=O)NCC(=O)OC (stereo partly shown) [Compound 16] ?
Data returned: 12.2 ± 6.9 mm

Data request: Can you share its Gastroprotective effect: Lesion index? I mean this compound: COC(=O)[C@H](Cc1c[nH]c2ccccc12)NC(=O)C[C@H](C)CCC1=C(C)CCC2[C@@](C)(C(=O)N[C@@H](Cc3c[nH]c4ccccc34)C(=O)OC)CCC[C@]12C (stereo partly shown) [Compound 10]
Data returned: 17.6 ± 7.8 mm

Data request: Entry C=C1CCC2[C@](C)(CCC[C@]2(C)C(=O)O)[C@H]1CC[C@@H](C)CC(=O)N[C@H](C(=O)OC)C(C)C (stereo partly shown) [Compound 12] : reported Gastroprotective effect: Lesion index = ?
Data returned: 15.4 ± 8.8 mm

Data request: Recorded Gastroprotective effect: Lesion index of COC(=O)[C@H](CC(C)C)NC(=O)C[C@H](C)CCC1=C(C)CCC2[C@@](C)(C(=O)O)CCC[C@]12C (stereo partly shown) [Compound 3] , please.
Data returned: 12.6 ± 6.8 mm

Data request: Recorded Gastroprotective effect: Lesion index of C=C1CCC2[C@](C)(CCC[C@]2(C)C(=O)O)[C@H]1CC[C@@H](C)CC(=O)N1CCC[C@H]1C(=O)OC (stereo partly shown) [Compound 14] , please.
Data returned: 18.5 ± 11.8 mm

Further cases:
Data request: What value of measured Gastroprotective effect: Lesion index is listed for COC(=O)[C@H](Cc1c[nH]c2ccccc12)NC(=O)C[C@H](C)CCC1=C(C)CCC2[C@@](C)(C(=O)O)CCC[C@]12C (stereo partly shown) [Compound 5] ?
Data returned: 34.3 ±12.0 mm

Data request: Need Gastroprotective effect: Lesion index of COC(=O)CNC(=O)C[C@H](C)CCC1=C(C)CCC2[C@@](C)(C(=O)NCC(=O)OC)CCC[C@]12C (stereo partly shown) [Compound 8] , thanks.
Data returned: 17.5 ± 9.9 mm

Data request: Looking for the measured Gastroprotective effect: Lesion index of C=C1CCC2[C@](C)(CCC[C@]2(C)C(=O)N[C@@H](Cc2c[nH]c3ccccc23)C(=O)OCC)[C@H]1CC[C@@H](C)CC(=O)N[C@@H](Cc1c[nH]c2ccccc12)C(=O)OCC (stereo partly shown) [Compound 20] , can you help?
Data returned: 14.3 ± 10.7 mm

Data request: Would you mind telling me what Gastroprotective effect: Lesion index value was observed for COC(=O)CNC(=O)C[C@H](C)CCC1=C(C)CCC2[C@@](C)(C(=O)O)CCC[C@]12C (stereo partly shown) [Compound 1] ?
Data returned: 12.3 ± 7.6 mm

Data request: Given C=C1CCC2[C@](C)(CCC[C@]2(C)C(=O)N2CCC[C@H]2C(=O)OC)[C@H]1CC[C@@H](C)CC(=O)N1CCC[C@H]1C(=O)OC (stereo partly shown) [Compound 19] , state its recorded Gastroprotective effect: Lesion index.
Data returned: 5.6 ± 3.2 mm

Data request: // Gastroprotective effect: Lesion index lookup, key: C=C1CCC2[C@](C)(CCC[C@]2(C)C(=O)O)[C@H]1CC[C@@H](C)CC(=O)NCC(=O)OC (stereo partly shown) [Compound 11]
Data returned: 12.9 ± 8.1 mm

Data request: Entry COC(=O)[C@@H]1CCCN1C(=O)[C@@]1(C)CCC[C@]2(C)C(CC[C@@H](C)CC(=O)O)=C(C)CCC12 (stereo partly shown) [Compound 7] has what Gastroprotective effect: Lesion index?
Data returned: 21.2 ± 9.5 mm

Data request: Returns the measured Gastroprotective effect: Lesion index for the input compound. Input: COC(=O)[C@@H]1CCCN1C(=O)C[C@H](C)CCC1=C(C)CCC2[C@@](C)(C(=O)O)CCC[C@]12C (stereo partly shown) [Compound 4]
Data returned: 13.4 ± 6.8 mm

###

run_description: Cytotoxicity, neutral red uptake assay, MRC-5
Type: cell-based
condition_summary: human, MRC-5 normal lung fibroblasts, confluent monolayers, confluent cultures, 0-1000 µM, mean ± SD
The entries below are paired with their reported IC50 at 24 h.
Response body: numeric value in µM, unit text excluded.

Worked cases, answers included:
Data request: Look up IC50 at 24 h: COC(=O)[C@@H]1CCCN1C(=O)C[C@H](C)CCC1=C(C)CCC2[C@@](C)(C(=O)O)CCC[C@]12C (stereo partly shown)
Data returned: 288

Data request: Data request, read-out IC50 at 24 h, for COC(=O)[C@@H]1CCCN1C(=O)[C@@]1(C)CCC[C@]2(C)C(CC[C@@H](C)CC(=O)O)=C(C)CCC12 (stereo partly shown)
Data returned: 459

Data request: Would you kindly share the measured IC50 at 24 h for C=C1CCC2[C@](C)(CCC[C@]2(C)C(=O)N2CCC[C@H]2C(=O)OC)[C@H]1CC[C@@H](C)CC(=O)N1CCC[C@H]1C(=O)OC (stereo partly shown) ?
Data returned: 267

Data request: # query: IC50 at 24 h of entry COC(=O)[C@@H]1CCCN1C(=O)C[C@H](C)CCC1=C(C)CCC2[C@@](C)(C(=O)N3CCC[C@H]3C(=O)OC)CCC[C@]12C (stereo partly shown)
Data returned: 119

Data request: Bench note: what IC50 at 24 h did Cc1c(OCC(F)(F)F)ccnc1C[S+]([O-])c1nc2ccccc2[nH]1 (stereo not shown) [Lansoprazole, reference compound] show?
Data returned: 306

Data request: Which IC50 at 24 h value is on record for C=C1CCC2[C@](C)(CCC[C@]2(C)C(=O)O)[C@H]1CC[C@@H](C)CC(=O)N[C@H](C(=O)OC)C(C)C (stereo partly shown) ?
Data returned: 380

Data request: Bench note: what IC50 at 24 h did C=C1CCC2[C@](C)(CCC[C@]2(C)C(=O)N[C@@H](CC(C)C)C(=O)OC)[C@H]1CC[C@@H](C)CC(=O)N[C@@H](CC(C)C)C(=O)OC (stereo partly shown) show?
Data returned: 495

Note: attention shifts to another entry.
Data request: # query: IC50 at 24 h of entry COC(=O)CNC(=O)C[C@H](C)CCC1=C(C)CCC2[C@@](C)(C(=O)O)CCC[C@]12C (stereo partly shown)
Data returned: 447

###

// IC50 at 24 h lookup, one value per entry
run_description: Cytotoxicity, neutral red uptake assay, MRC-5
Type: cell-based
condition_summary: human, MRC-5 normal lung fibroblasts, confluent monolayers, confluent cultures, 0-1000 µM, mean ± SD

Past entries and their recorded results:
Data request: Form field: reported IC50 at 24 h of COC(=O)[C@H](CC(C)C)NC(=O)C[C@H](C)CCC1=C(C)CCC2[C@@](C)(C(=O)O)CCC[C@]12C (stereo partly drawn)
Data returned: > 1000 µM

Data request: I have this compound here, C=C1CCC2[C@](C)(CCC[C@]2(C)C(=O)O)[C@H]1CC[C@@H](C)CC(=O)N[C@@H](Cc1c[nH]c2ccccc12)C(=O)OC (stereo partly drawn) , and I need its recorded IC50 at 24 h.
Data returned: > 1000 µM

With those in mind, consider the next compound.
Data request: Name the reported IC50 at 24 h value associated with the compound COC(=O)[C@H](Cc1c[nH]c2ccccc12)NC(=O)C[C@H](C)CCC1=C(C)CCC2[C@@](C)(C(=O)O)CCC[C@]12C (stereo partly drawn)
Data returned: 260 µM
